The following compounds are listed with their measured Kb values.
# measurement-target: human orexin-2 (hOX2) receptors (Homo sapiens)
# Construct: expressed in transfected cells
# Sequence (O43614 whole entry): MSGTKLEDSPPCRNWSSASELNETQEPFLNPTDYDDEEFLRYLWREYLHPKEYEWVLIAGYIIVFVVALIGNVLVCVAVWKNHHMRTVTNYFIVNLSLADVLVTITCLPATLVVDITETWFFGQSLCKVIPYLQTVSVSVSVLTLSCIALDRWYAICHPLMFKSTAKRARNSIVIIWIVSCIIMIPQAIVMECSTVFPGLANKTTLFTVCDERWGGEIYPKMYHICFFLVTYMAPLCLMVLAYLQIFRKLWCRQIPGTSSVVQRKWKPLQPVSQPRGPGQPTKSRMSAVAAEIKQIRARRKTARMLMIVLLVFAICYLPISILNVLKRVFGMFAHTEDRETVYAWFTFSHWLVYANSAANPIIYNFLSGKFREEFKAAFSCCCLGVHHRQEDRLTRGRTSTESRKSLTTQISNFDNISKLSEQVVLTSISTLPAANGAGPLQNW
# experiment-summary: Intracellular Ca2+ mobilization assay (FLIPR), CHO(dHFr-) cells expressing hOX2
# Type: cell-based
# condition-context: antagonism of orexin-A at EC80; Kb=IC50/(1+[A]/EC50); CHO(dHFr-)-OX2R cells
Reply with just the number (in µM).

Answered cases to consult:
| compound | recorded-metric | unit-of-measure | reported |
| --- | --- | --- | --- |
| CNC(=O)C(c1ccccc1)N1CCc2sc(C)cc2C1CCc1ccc(C(F)(F)F)cc1 (single isomer, unassigned) [Example 4] | Kb | µM | 0.0204 |
| CNC(=O)C(c1ccccc1)N1CCc2sc(Cl)cc2C1CCc1ccc(OC)cc1 (single isomer, unassigned) [Example 18] | Kb | µM | 0.032 |

Input line: Give the measured Kb of CNC(=O)C(c1ccccc1)N1CCc2ncccc2C1CCc1ccc(OC)cc1 (single isomer, unassigned) [Example 11] .
Output line: 0.0215

====

# measurement-target: human orexin-1 (hOX1) receptors (Homo sapiens, UniProt O43613)
# Construct: expressed in transfected cells
# Sequence (O43613 1-425): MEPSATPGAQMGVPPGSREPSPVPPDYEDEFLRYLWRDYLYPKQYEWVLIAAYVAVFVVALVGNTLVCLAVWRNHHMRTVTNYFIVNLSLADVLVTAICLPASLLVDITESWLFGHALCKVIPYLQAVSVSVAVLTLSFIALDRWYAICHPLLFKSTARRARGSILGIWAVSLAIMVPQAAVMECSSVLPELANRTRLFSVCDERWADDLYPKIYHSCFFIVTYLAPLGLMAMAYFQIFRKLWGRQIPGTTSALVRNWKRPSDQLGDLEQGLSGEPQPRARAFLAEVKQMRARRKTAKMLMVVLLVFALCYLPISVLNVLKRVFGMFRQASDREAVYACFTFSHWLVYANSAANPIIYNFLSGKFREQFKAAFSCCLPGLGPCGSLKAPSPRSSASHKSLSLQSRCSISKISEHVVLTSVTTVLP
# experiment-summary: Intracellular Ca2+ mobilization assay (FLIPR), CHO(dHFr-) cells expressing hOX1
# Assay type: cell-based
# condition-context: antagonism of orexin-A at EC80; Kb=IC50/(1+[A]/EC50); CHO(dHFr-)-OX1R cells
# Description: Intracellular Ca^2+ Mobilization Assay […] Kb values were calculated according to the following equation Kb=IC50/(1+[A]/EC50) where A is the concentration of agonist added which is very close to agonist EC80 value, and IC50 and EC50 values were derived from the antagonist inhibition and orexin-A or B agonist curves, respectively.
recorded-metric: log10(Kb) (log10 of the value in µM)
Hey, these are logged values: log10 of Kb, µM being the unit before logging.

Please review the following examples before continuing.
| compound | measurement-target | reported |
| --- | --- | --- |
| CNC(=O)C(c1ccccc1)N1CCc2ncccc2C1CCc1cccc(OC)c1 (single isomer, unassigned) [Example 25] | human orexin-1 (hOX1) receptors (Homo sapiens, UniProt O43613) | -0.97 |
| CNC(=O)C(c1ccccc1)N1CCc2ncccc2C1CCc1ccc(F)cc1 (single isomer, unassigned) | human orexin-1 (hOX1) receptors (Homo sapiens, UniProt O43613) | -0.52 |
| CNC(=O)C(c1ccccc1)N1CCc2sc(C)c(C)c2C1CCc1ccc(OC)cc1 (single isomer, unassigned) [Example 14] | human orexin-1 (hOX1) receptors (Homo sapiens, UniProt O43613) | -1.66 |
| CNC(=O)C(c1ccccc1)N1CCc2ncccc2C1CCc1cccc(OC)c1 (single isomer, unassigned) [Example 23] | human orexin-1 (hOX1) receptors (Homo sapiens, UniProt O43613) | -0.65 |
| CNC(=O)C(c1ccccc1)N1CCc2sc(Cl)cc2C1CCc1ccc(OC)cc1 (single isomer, unassigned) [Example 18] | human orexin-1 (hOX1) receptors (Homo sapiens, UniProt O43613) | -2.02 |

Input line: Item under review: CNC(=O)C(c1ccccc1)N1CCc2ncccc2C1CCc1ccc(C(F)(F)F)cc1 (single isomer, unassigned) . Reported log10(Kb)?
Output line: -0.46

Input line: How about this compound: CNC(=O)C(c1ccccc1)N1CCc2sc(C)cc2C1CCc1ccc(OC)cc1 (single isomer, unassigned) [Example 7]
Output line: -1.51
